Test system: Tocilizumab
test summary: Microtiter plate chromatography of resins, Tocilizumab (bound, yield)
Assay type: binding, humanized
experimental conditions: mass eluted / mass injected
property name: Tocilizumab Yield (%)
A number alone suffices; assume %.

As a guide, the following entries are already answered.
- COc1ccc(NC(=O)c2cn3ccsc3n2)cc1C(=O)NCCCNC(=O)CCCCCN: 98
- NCCCNC(=O)c1cccc(C(=O)Nc2nnc(-c3ccco3)s2)c1: 100
- COc1ccc(NC(=O)c2nnc(-c3ccco3)o2)cc1C(=O)NCCOCCOCC(=O)NCCOCCOCC(=O)NCCCN: 86

Kindly note the recorded Tocilizumab Yield (%) for `COc1ccc(NC(=O)c2cc(-c3csc(C)n3)on2)cc1C(=O)NCCOCCOCC(=O)NCCOCCOCC(=O)NCCCN` , which is 71
